tested on: H69 cells; assay: Cell viability assay (CellTiter-Glo), H69 wild type; type: cell-based; settings: wild type H69, 120 h incubation
Measured endpoint: IC50 (nM)
Answer format: numeric, nM implied, no suffix.

Considering Azide-TEG-Val-Cit-Gly-Pro-Gly-cryptophycin-55 [Example 5] , its IC50 with H69 cells was recorded as 1.7

* * *

test system: SK-BR3 cells; assay: Cell viability assay (CellTiter-Glo), SK-BR3; assay type: cell-based; settings: HER2-positive SK-BR3, 96 h incubation; read-out: SK-BR3 CC50
Measured endpoint: CC50 (nM)
Express your answer in nM, writing the number without its unit.

Observed CC50 on SK-BR3 cells, entry Maleimide-PEG-Val-Cit-Pro-Gly-Cryptophycin-55-glycinate [Cry-55-Linker] , equals 2.6

These data points were gathered from patent US20180078656A1.
